Origin of the recorded values: patent US11204492B2

assay: Density of naphthalene based compounds and liquid lens liquids; format: physicochemical; design: unit not given here; settings: 20° C.; neat compound
PROPERTY: Density at 20° C.

| CHEMICAL_STRING | PROPERTY | EXPERIMENTAL_VALUE |
| --- | --- | --- |
| C[CH2][Ge]([CH2]C)([CH2]C)[c]1ccc2ccccc2c1 | Density at 20° C. | 1.14 |
| c1ccc(Sc2ccc3ccccc3c2)cc1 | Density at 20° C. | 1.16 |
| CCc1ccc2ccccc2c1 | Density at 20° C. | 1.01 |
| CCCCCCCC[Si](C)(C)c1ccc2ccccc2c1 | Density at 20° C. | 0.95 |
| CCCc1ccc2ccccc2c1 | Density at 20° C. | 0.98 |

query: Returns the measured Density at 20° C. for the input molecule. Input: `[CH3][Ge]([CH3])([CH3])[c]1ccc2ccccc2c1`
result: 1.19

query: Density at 20° C. for `C[Si](C)(C)c1ccc2ccccc2c1` ?
result: 1.01

query: I'd like to know its Density at 20° C.. The molecule in question is `Fc1cccc2ccccc12`
result: 1.13

query: I'd like to know its Density at 20° C.. The molecule in question is `CCCC[Si](C)(C)c1ccc2ccccc2c1`
result: 0.97
